Target: 12-lipoxygenase (Rattus norvegicus, UniProt F1LQ70)
Construct: The platelets were then sonicated at 4° C. and centrifuged at 100,000×g for 30 minutes to obtain a supernatant as a 12-lipoxygenase enzyme solution; from tissue; host or cells: Sprague Dawley rat platelets (from aortic blood), sonicated, 100,000 x g supernatant
Sequence (F1LQ70 1-663): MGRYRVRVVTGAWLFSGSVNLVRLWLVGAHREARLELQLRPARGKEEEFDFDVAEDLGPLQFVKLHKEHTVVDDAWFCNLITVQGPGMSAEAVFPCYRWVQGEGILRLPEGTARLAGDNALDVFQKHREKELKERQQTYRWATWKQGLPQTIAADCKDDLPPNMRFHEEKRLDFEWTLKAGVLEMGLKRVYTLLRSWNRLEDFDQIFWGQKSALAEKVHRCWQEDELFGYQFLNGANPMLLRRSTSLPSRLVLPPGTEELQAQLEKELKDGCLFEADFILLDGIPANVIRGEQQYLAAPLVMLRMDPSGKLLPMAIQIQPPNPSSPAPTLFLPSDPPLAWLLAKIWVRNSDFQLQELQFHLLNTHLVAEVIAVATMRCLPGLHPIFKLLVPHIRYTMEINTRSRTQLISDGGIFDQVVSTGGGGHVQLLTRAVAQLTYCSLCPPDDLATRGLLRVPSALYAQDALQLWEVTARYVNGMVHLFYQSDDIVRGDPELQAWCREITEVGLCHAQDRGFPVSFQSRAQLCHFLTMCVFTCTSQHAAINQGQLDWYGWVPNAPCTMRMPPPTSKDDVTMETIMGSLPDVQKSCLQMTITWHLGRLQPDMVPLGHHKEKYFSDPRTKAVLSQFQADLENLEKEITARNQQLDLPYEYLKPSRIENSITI
Assay: 12-lipoxygenase inhibition assay (rat platelet supernatant, arachidonic acid, HPLC of 12-HETE)
Format: biochemical, Sprague Dawley male rat (platelets)
Conditions: IC50 value of 12-lipoxygenase, Test Example 2, Table 2
RECORDED_ENDPOINT: pIC50
One number for each entry, as −log10 of the molar value.

INPUT: Fetch value of pIC50 on 12-lipoxygenase (Rattus norvegicus, UniProt F1LQ70) for O=c1cc(-c2ccccc2)oc2cc(O)c(O)c(O)c12 [Baicalein, 5,6,7-trihydroxyflavone, reference compound] .
OUTPUT: 7.38

---

For each record, write down the corresponding IC50.
biological target: 5-lipoxygenase (Rattus norvegicus); construct: host or cells: RBL-1 (rat basophilic leukemia cells); assay: 5-lipoxygenase inhibition assay (RBL-1 supernatant, arachidonic acid, HPLC of 5-HETE); format: biochemical, rat (basophilic leukemia cells RBL-1, ATCC CRL1378); conditions: Test Example 2, Table 2; read-out: IC50 value of 5-lipoxygenase
Numbers only, in nM.

Worked cases, answers included:
O=c1oc2cc(O)c(O)cc2cc1-c1ccc(F)cc1
400
O=c1oc2c(O)c(O)ccc2cc1-c1cc(Br)cs1
360
O=c1oc2cc(O)c(O)cc2cc1-c1ccc(Cl)cc1 [Example 8, 3-(4-chlorophenyl)-6,7-dihydroxycoumarin]
260
O=c1oc2c(O)c(O)ccc2cc1-c1ccc(Cl)cc1 [Example 4, 3-(4-chlorophenyl)-7,8-dihydroxycoumarin]
480
O=c1oc2c(O)c(O)ccc2cc1-c1ccc(Br)cc1 [Example 25, 3-(4-bromophenyl)-7,8-dihydroxycoumarin]
420

Hi team, please reply with IC50 for each item in this list.
1. Cc1ccc(-c2cc3ccc(O)c(O)c3oc2=O)o1
2. O=c1oc2cc(O)c(O)cc2cc1-c1cc(Br)cs1

OUTPUT:
[340, 150]

Hi team, please reply with IC50 for each item in this list.
1. O=c1oc2cc(O)c(O)cc2cc1-c1cccs1 [Example 15, 3-(thiophen-2-yl)-6,7-dihydroxycoumarin]
2. Cc1c(-c2ccc(Cl)cc2)c(=O)oc2cc(O)c(O)cc12
3. COc1ccc(-c2cc3ccc(O)c(O)c3oc2=O)cc1
4. Cc1ccc(-c2cc3cc(O)c(O)cc3oc2=O)o1
5. O=c1oc2cc(O)c(O)cc2cc1-c1ccc(I)cc1 [Example 10, 3-(4-iodophenyl)-6,7-dihydroxycoumarin]

OUTPUT:
1: 330; 2: 410; 3: 660; 4: 250; 5: 140

Hi team, please reply with IC50 for each item in this list.
1. O=c1oc2c(O)c(O)ccc2cc1-c1cccc(Cl)c1 [Example 22, 3-(3-chlorophenyl)-7,8-dihydroxycoumarin]
2. O=c1oc2cc(O)c(O)cc2cc1-c1ccc(Br)cc1

OUTPUT:
1: 270; 2: 190

---

Biological target: 5-lipoxygenase (Rattus norvegicus, UniProt P12527)
Construct: host or cells: RBL-1 (rat basophilic leukemia cells)
Sequence (P12527 1-673): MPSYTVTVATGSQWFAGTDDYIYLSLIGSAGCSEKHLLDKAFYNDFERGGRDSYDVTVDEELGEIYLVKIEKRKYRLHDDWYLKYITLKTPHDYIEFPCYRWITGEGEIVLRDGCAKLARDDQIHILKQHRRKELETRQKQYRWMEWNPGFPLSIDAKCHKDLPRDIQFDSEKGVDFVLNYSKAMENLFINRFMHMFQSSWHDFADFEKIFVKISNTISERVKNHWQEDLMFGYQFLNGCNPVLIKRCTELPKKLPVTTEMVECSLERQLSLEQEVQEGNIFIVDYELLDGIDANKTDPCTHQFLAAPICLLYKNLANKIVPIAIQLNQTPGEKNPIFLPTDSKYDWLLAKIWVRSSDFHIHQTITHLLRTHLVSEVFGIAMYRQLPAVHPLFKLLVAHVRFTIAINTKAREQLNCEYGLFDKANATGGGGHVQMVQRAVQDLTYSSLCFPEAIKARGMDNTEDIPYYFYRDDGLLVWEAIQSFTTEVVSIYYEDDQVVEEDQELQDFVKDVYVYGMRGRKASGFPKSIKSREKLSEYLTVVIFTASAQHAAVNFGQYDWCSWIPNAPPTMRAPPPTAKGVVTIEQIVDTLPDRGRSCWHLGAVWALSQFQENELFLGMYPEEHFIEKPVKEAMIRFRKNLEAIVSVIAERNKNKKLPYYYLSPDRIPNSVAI
Experiment: 5-lipoxygenase inhibition assay (RBL-1 supernatant, arachidonic acid, HPLC of 5-HETE)
Format: biochemical, rat (basophilic leukemia cells RBL-1, ATCC CRL1378)
Settings: Test Example 5, Table 22; read-out: 5-Lipoxygenase inhibiting activity IC50 value
RECORDED_ENDPOINT: IC50 (nM)
Answers are plain numbers, in nM.

Worked cases, answers included:
O=c1oc2c(O)c(O)ccc2cc1-c1csc2ccccc12
190
O=c1oc2cc(O)c(O)cc2cc1-c1csc2ccccc12
180
O=c1oc2c(O)c(O)ccc2cc1-c1ccc2ccccc2c1
230

Now look at this one.
INPUT: Fetch value of IC50 on 5-lipoxygenase (Rattus norvegicus, UniProt P12527) for O=c1oc2cc(O)c(O)cc2cc1-c1ccc2ccccc2c1 .
OUTPUT: 65

---

Molecular target: 12-lipoxygenase (Rattus norvegicus, UniProt F1LQ70)
Construct: The platelets were then sonicated at 4° C. and centrifuged at 100,000×g for 30 minutes to obtain a supernatant as a 12-lipoxygenase enzyme solution; from tissue; host or cells: Sprague Dawley rat platelets (from aortic blood), sonicated, 100,000 x g supernatant
Sequence (F1LQ70 1-663): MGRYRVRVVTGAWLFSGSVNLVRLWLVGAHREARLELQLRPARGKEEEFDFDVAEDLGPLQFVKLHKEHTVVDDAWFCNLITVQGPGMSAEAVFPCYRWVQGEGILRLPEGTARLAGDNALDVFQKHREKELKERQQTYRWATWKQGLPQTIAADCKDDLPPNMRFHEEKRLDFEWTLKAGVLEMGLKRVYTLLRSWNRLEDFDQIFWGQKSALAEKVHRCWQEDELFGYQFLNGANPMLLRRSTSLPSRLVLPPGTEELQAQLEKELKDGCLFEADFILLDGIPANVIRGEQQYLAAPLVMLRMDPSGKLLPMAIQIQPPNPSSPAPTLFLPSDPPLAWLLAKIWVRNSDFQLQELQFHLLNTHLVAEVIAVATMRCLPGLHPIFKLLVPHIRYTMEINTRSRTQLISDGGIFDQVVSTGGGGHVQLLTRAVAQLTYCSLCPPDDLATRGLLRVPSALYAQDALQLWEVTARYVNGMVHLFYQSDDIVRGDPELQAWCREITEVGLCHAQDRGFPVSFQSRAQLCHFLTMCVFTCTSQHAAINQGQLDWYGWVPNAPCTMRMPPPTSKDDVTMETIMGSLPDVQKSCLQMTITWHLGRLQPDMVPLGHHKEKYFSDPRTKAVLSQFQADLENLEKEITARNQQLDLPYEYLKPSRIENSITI
Assay: 12-lipoxygenase inhibition assay (rat platelet supernatant, arachidonic acid, HPLC of 12-HETE)
Assay type: biochemical, Sprague Dawley male rat (platelets)
Conditions: Test Example 1, Table 1 and text; read-out: 12-lipoxygenase IC50 value
RECORDED_ENDPOINT: pIC50
Numbers only, as −log10 of the molar value.

Hi team, please reply with pIC50 for each item in this list.
1. Cc1c(-c2ccc(Cl)cc2)c(=O)oc2cc(O)c(O)cc12
2. O=c1cc(-c2ccccc2)c2ccc(O)c(O)c2o1 [Comp. Example 3, reference compound]
3. O=c1oc2c(O)c(O)ccc2cc1-c1ccc(O)cc1 [Comp. Example 5, reference compound]
4. O=c1oc2c(O)c(O)ccc2c(-c2ccccc2)c1-c1ccccc1 [Comp. Example 4, reference compound]

OUTPUT:
[8.04, 6.59, 5.96, 6.92]

This collection of values is drawn from patent US5574062A.
